tested on: USF1 (upstream stimulatory factor) (Ciona intestinalis); test: SPR; conditions: binding good, dimer
Sequence (chain, as listed by the source): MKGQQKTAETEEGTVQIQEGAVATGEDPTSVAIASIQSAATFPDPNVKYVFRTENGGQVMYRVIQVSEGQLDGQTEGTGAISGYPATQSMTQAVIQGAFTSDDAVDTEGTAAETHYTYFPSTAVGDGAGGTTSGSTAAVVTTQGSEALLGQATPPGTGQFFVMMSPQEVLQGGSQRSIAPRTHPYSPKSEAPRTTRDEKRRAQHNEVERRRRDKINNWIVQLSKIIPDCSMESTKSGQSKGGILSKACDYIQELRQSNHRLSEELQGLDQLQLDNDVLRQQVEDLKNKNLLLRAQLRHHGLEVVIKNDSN
Quantity name: pKd
By convention, pKd is the negative base-10 log of a molar concentration.

| Residue sequence | Target under test | pKd |
| --- | --- | --- |
| GGTATTGAGGGTCGCATCGGCTTCAGGTTGGTCTGGTTGGGTTTGGCTCCTGTGTACGGATGGCTCTAACTCTCCTCT [6H5] | USF1 (upstream stimulatory factor) (Ciona intestinalis) | 6.75 |

Moving on to another sequence below.
(Q) Consider the sequence GGTATTGAGGGTCGCATCGGCAAAAAGGATTGCCCAGGTCTGCTGTCTAGCCGGATTCGATGGCTCTAACTCTCCTCT [6H1] and give its measured pKd.
(A) 7.44
